# ASSAY SUMMARY: Cytotoxicity against mouse C2C12 cells assessed as reduction in cell viability
# Type: cell-based
# SETUP CONDITIONS: read-out: TC50 (the source's name)
OUTCOME MEASURE: CC50

Query block: Recorded CC50 for "O=S(=O)(c1ccc(-c2ccc3nccc(N[C@@H]4CCCC[C@H]4O)c3c2)cc1)N1CCOCC1" , please?
Result block: > 10 µM

---

# ASSAY SUMMARY: Cytotoxicity against human HepG2 cells assessed as reduction in cell viability
# Type: cell-based
# SETUP CONDITIONS: read-out: TC50 (the source's name)
OUTCOME MEASURE: CC50

Query block: Request the reported CC50 associated with "CS(=O)(=O)N1CCN(c2ncc(-c3ccc4c(Nc5cnccn5)ccnc4c3)cn2)CC1"
Result block: > 33 µM

The values you see were collected from ChEMBL document CHEMBL4342474.
